System: T47D
assay_comment: Growth inhibition of human T47D cells after 48 hrs by Sulforhodamine B assay
Type: functional
Catalogue of compounds with associated GI50
Hi! Could you send only the number? It should be in µM, unit omitted.

Solved cases below.
> print(dat)
                         structure.notation  measurement.label  unit.string  recorded.result
1      NNc1nc(-c2ccccn2)nc2sc3c(c12)CCCCCC3               GI50           µM             5.01
2  COc1ccc(N2CCN(c3nc(-c4ccccn4)nc4sc5c(c34)CCCCCC5)CC2)cc1               GI50           µM             6.31
3  c1ccc(-c2nc(N3CCOCC3)c3c4c(sc3n2)CCCCCC4)nc1               GI50           µM             4.47
4  CN1CCN(c2nc(-c3ccncc3)nc3sc4c(c23)CCCCCC4)CC1               GI50           µM             13.5

Consider now this further compound.
# input So what does the record say about GI50 for `O=c1[nH]c(-c2ccccn2)nc2sc3c(c12)CCCCCC3` ?
# output 5.5

====

Tested on: UACC-62
assay_comment: Growth inhibition of human UACC62 cells at 10^-5 M after 48 hrs by Sulforhodamine B assay relative to control
Assay type: functional
experimental_parameters: UACC-62, 48 h, read-out: GI
Answer no if inhibition of growth at 10 µM is under 10%, and yes if it is 10% or more.

See these solved cases before continuing.
> print(dat)
                         structure.notation  class.assignment
1  CN1CCN(c2nc(-c3ccccn3)nc3sc4c(c23)CCCCCC4)CC1                no
2      NNc1nc(-c2ccncc2)nc2sc3c(c12)CCCCCC3               yes

# input Determine whether this compound has inhibition of growth at 10 µM no lower than 10%: `c1ccc(N2CCN(c3nc(-c4ccncc4)nc4sc5c(c34)CCCCCC5)CC2)cc1`
# output no

# input `c1ccc(N2CCN(c3nc(-c4ccccn4)nc4sc5c(c34)CCCCCC5)CC2)cc1` , same question.
# output yes

====

Catalogue of compounds with associated GI50
Tested on: OVCAR-4
assay_comment: Growth inhibition of human OVCAR4 cells after 48 hrs by Sulforhodamine B assay
Format: functional
experimental_parameters: OVCAR-4, 48 h
In your response, put the unit directly after the numeric value.

> print(dat)
                         structure.notation  measurement.label  recorded.result
1      NNc1nc(-c2ccccn2)nc2sc3c(c12)CCCCCC3               GI50          10.5 µM
2  CN1CCN(c2nc(-c3ccncc3)nc3sc4c(c23)CCCCCC4)CC1               GI50          12.6 µM
3  c1ccc(-c2nc(N3CCOCC3)c3c4c(sc3n2)CCCCCC4)nc1               GI50           4.9 µM
4  COc1ccc(N2CCN(c3nc(-c4ccccn4)nc4sc5c(c34)CCCCCC5)CC2)cc1               GI50          8.51 µM

Consider now this further compound.
# input So what does the record say about GI50 for `O=c1[nH]c(-c2ccccn2)nc2sc3c(c12)CCCCCC3` ?
# output 5.89 µM

====

System: PC-3
assay_comment: Growth inhibition of human PC3 cells after 48 hrs by Sulforhodamine B assay
Assay type: functional
experimental_parameters: PC-3, 48 h
measurement_label: GI50 (µM)
Hi! Could you send only the number? It should be in µM, unit omitted.

Solved cases below.
> print(dat)
                         structure.notation  measurement.label  recorded.result
1   O=c1[nH]c(-c2ccccn2)nc2sc3c(c12)CCCCCC3               GI50             4.07
2  CN1CCN(c2nc(-c3ccncc3)nc3sc4c(c23)CCCCCC4)CC1               GI50             4.68
3  COc1ccc(N2CCN(c3nc(-c4ccccn4)nc4sc5c(c34)CCCCCC5)CC2)cc1               GI50             3.31
4      NNc1nc(-c2ccccn2)nc2sc3c(c12)CCCCCC3               GI50             3.98

Consider now this further compound.
# input So what does the record say about GI50 for `c1ccc(-c2nc(N3CCOCC3)c3c4c(sc3n2)CCCCCC4)nc1` ?
# output 2.69

====

Test system: SK-OV-3
assay_comment: Growth inhibition of human SKOV3 cells after 48 hrs by Sulforhodamine B assay
Assay type: functional
experimental_parameters: SK-OV-3, 48 h
Catalogue of compounds with associated GI50

> print(dat)
                         structure.notation  recorded.result
1      NNc1nc(-c2ccccn2)nc2sc3c(c12)CCCCCC3          30.9 µM
2  COc1ccc(N2CCN(c3nc(-c4ccccn4)nc4sc5c(c34)CCCCCC5)CC2)cc1         > 100 µM
3   O=c1[nH]c(-c2ccccn2)nc2sc3c(c12)CCCCCC3         > 100 µM

# input So what does the record say about GI50 for `c1ccc(-c2nc(N3CCOCC3)c3c4c(sc3n2)CCCCCC4)nc1` ?
# output 9.33 µM

# input `CN1CCN(c2nc(-c3ccncc3)nc3sc4c(c23)CCCCCC4)CC1` , same question.
# output 12 µM

====

assay_comment: Growth inhibition of human NCI-ADR-RES cells after 48 hrs by Sulforhodamine B assay
Type: functional
measurement_label: GI50 (µM)
Hi! Could you send only the number? It should be in µM, unit omitted.

Solved cases below.
> print(dat)
                         structure.notation  recorded.result
1  COc1ccc(N2CCN(c3nc(-c4ccccn4)nc4sc5c(c34)CCCCCC5)CC2)cc1             4.79
2  CN1CCN(c2nc(-c3ccncc3)nc3sc4c(c23)CCCCCC4)CC1             8.13
3  c1ccc(-c2nc(N3CCOCC3)c3c4c(sc3n2)CCCCCC4)nc1            0.832

# input So what does the record say about GI50 for `NNc1nc(-c2ccccn2)nc2sc3c(c12)CCCCCC3` ?
# output 0.457

# input `O=c1[nH]c(-c2ccccn2)nc2sc3c(c12)CCCCCC3` , same question.
# output 0.955

====

System: ACHN
assay_comment: Growth inhibition of human ACHN cells after 48 hrs by Sulforhodamine B assay
Format: functional
measurement_label: GI50

# input So what does the record say about GI50 for `COc1ccc(N2CCN(c3nc(-c4ccccn4)nc4sc5c(c34)CCCCCC5)CC2)cc1` ?
# output 5.13 µM

# input `O=c1[nH]c(-c2ccccn2)nc2sc3c(c12)CCCCCC3` , same question.
# output 5.25 µM

====

Test system: SK-OV-3
assay_comment: Growth inhibition of human SKOV3 cells at 10^-5 M after 48 hrs by Sulforhodamine B assay relative to control
Assay type: functional
experimental_parameters: SK-OV-3, 48 h, read-out: GI
measurement_label: inhibition of growth at 10 µM (%)
Hi! Could you send only the number? It should be in %, unit omitted.

> print(dat)
                         structure.notation              measurement.label  recorded.result
1  c1cc(-c2nc(N3CCOCC3)c3c4c(sc3n2)CCCCCC4)ccn1  inhibition of growth at 10 µM             0.61

# input So what does the record say about inhibition of growth at 10 µM for `COc1ccc(N2CCN(c3nc(-c4ccncc4)nc4sc5c(c34)CCCCCC5)CC2)cc1` ?
# output 0.84

# input `c1ccc(N2CCN(c3nc(-c4ccncc4)nc4sc5c(c34)CCCCCC5)CC2)cc1` , same question.
# output 1.97

# input `Clc1nc(-c2ccccn2)nc2sc3c(c12)CCCCCC3` , same question.
# output -5.16

# input `c1ccc(N2CCN(c3nc(-c4ccccn4)nc4sc5c(c34)CCCCCC5)CC2)cc1` , same question.
# output 12.6

# input `Clc1nc(-c2ccncc2)nc2sc3c(c12)CCCCCC3` , same question.
# output -7.46

# input `CN1CCN(c2nc(-c3ccccn3)nc3sc4c(c23)CCCCCC4)CC1` , same question.
# output -3.22

# input `NNc1nc(-c2ccncc2)nc2sc3c(c12)CCCCCC3` , same question.
# output 9.44

====

System: SR
assay_comment: Growth inhibition of human SR cells after 48 hrs by Sulforhodamine B assay
Type: functional
Catalogue of compounds with associated GI50
Hi! Could you send only the number? It should be in µM, unit omitted.

> print(dat)
                         structure.notation  recorded.result
1  COc1ccc(N2CCN(c3nc(-c4ccccn4)nc4sc5c(c34)CCCCCC5)CC2)cc1             3.16

# input So what does the record say about GI50 for `O=c1[nH]c(-c2ccccn2)nc2sc3c(c12)CCCCCC3` ?
# output 0.871

# input `NNc1nc(-c2ccccn2)nc2sc3c(c12)CCCCCC3` , same question.
# output 3.98

# input `CN1CCN(c2nc(-c3ccncc3)nc3sc4c(c23)CCCCCC4)CC1` , same question.
# output 2.82
